Tested on: NOMO1
Experiment: cell viability relative to DMSO control; higher = less cytotoxic
Details: RPMI 5 mM glucose + 10% dialyzed FBS; 48 h; 1.71 µM
Simple rule here: cell viability less than 90% is Satisfied, otherwise Not satisfied.

[
  {
    "Mol": "Cc1n[nH]c2ccc(-c3cncc(OC[C@@H](N)Cc4c[nH]c5ccccc45)c3)cc12",
    "Assay System": "NOMO1",
    "Class Label": "Satisfied"
  },
  {
    "Mol": "Cc1nc(N)sc1-c1ccnc(Nc2ccc(N3CCOCC3)cc2)n1",
    "Assay System": "NOMO1",
    "Class Label": "Not satisfied"
  },
  {
    "Mol": "CNCCN(C)Cc1c[nH]nc1-c1ccc(O[C@H]2C[C@H](OCCC3CCOCC3)C2)cc1",
    "Assay System": "NOMO1",
    "Class Label": "Not satisfied"
  },
  {
    "Mol": "O=C(O)CCCc1ccc(N(CCCl)CCCl)cc1",
    "Assay System": "NOMO1",
    "Class Label": "Not satisfied"
  }
]

====

Below, each of the compounds is paired with its reported cell viability value.
Test system: P12-Ichikawa
Experiment: cell viability relative to DMSO control; higher = less cytotoxic
Conditions: RPMI 5 mM glucose + 10% FBS; 48 h; 0.00234 µM

[
  {
    "Mol": "CC/C(=C(\\c1ccccc1)c1ccc(OCCN(C)C)cc1)c1ccccc1",
    "cell viability, %": 102
  },
  {
    "Mol": "C[C@@H](Oc1ccc2[nH]nc(/C=C/c3cnn(CCO)c3)c2c1)c1c(Cl)cncc1Cl",
    "cell viability, %": 89.8
  },
  {
    "Mol": "O=C1N\\N=C(\\C[C@@H]2CCN(C2)C(=O)C3CC3)N1C4=CC=C(C=C4)C5=CC=C6OC=CC6=C5",
    "cell viability, %": 77
  },
  {
    "Mol": "O=C(Nc1ccncc1)C(=O)c1cn(Cc2ccc(Cl)cc2)c2ccccc12",
    "cell viability, %": 98.6
  },
  {
    "Mol": "Cc1ccc(Nc2nccc(N(C)c3ccc4c(C)n(C)nc4c3)n2)cc1[S+](N)(=O)[O-]",
    "cell viability, %": 115
  },
  {
    "Mol": "CN(C)Cc1cccc(N/C(=C2\\C(=O)Nc3cc(C(=O)N(C)C)ccc32)c2ccccc2)c1",
    "cell viability, %": 114
  },
  {
    "Mol": "CNC(=O)c1ccccc1Sc1ccc2c(/C=C/c3ccccn3)n[nH]c2c1",
    "cell viability, %": 116
  },
  {
    "Mol": "COC(=O)Nc1nc2cc(Sc3ccccc3)ccc2[nH]1",
    "cell viability, %": 113
  },
  {
    "Mol": "CO[C@H]1C[C@H]2OC[C@@]2(OC(C)=O)[C@H]3[C@H](OC(=O)C4=CC=CC=C4)[C@]5(O)C[C@H](OC(=O)[C@H](O)[C@@H](NC(=O)OC(C)(C)C)C6=CC=CC=C6)/C(=C(/[C@@H](OC)C(=O)[C@]13C)C5(C)C)C",
    "cell viability, %": 81.6
  }
]

====

Test system: SEM cells
Experiment: cell viability relative to DMSO control; higher = less cytotoxic
Conditions: HPLM + 10% dialyzed FBS; 48 h; 0.00702 µM
Readout Type: cell viability (%)

[
  {
    "Molecule": "CC1CCN(c2cc(N3CCN(C)CC3)ccc2NC(=O)c2cc(C#N)c[nH]2)CC1",
    "Assay System": "SEM cells",
    "Readout Type": "cell viability",
    "Uom": "%",
    "Assay Result": 120
  },
  {
    "Molecule": "O=C1C(CCC(O)c2ccc(F)cc2)C(c2ccc(O)cc2)N1c1ccc(F)cc1 (stereo not given)",
    "Assay System": "SEM cells",
    "Readout Type": "cell viability",
    "Uom": "%",
    "Assay Result": 110
  },
  {
    "Molecule": "CON(C)C(=O)N1\\N=C(/S[C@]1(CCCN)C2=CC=CC=C2)C3=CC(=CC=C3F)F",
    "Assay System": "SEM cells",
    "Readout Type": "cell viability",
    "Uom": "%",
    "Assay Result": 24.5
  },
  {
    "Molecule": "O=C(N[C@H]1CN2CCC1CC2)c1ccc(Cl)cc1",
    "Assay System": "SEM cells",
    "Readout Type": "cell viability",
    "Uom": "%",
    "Assay Result": 95.5
  },
  {
    "Molecule": "O=C(Nc1ccncc1)C(=O)c1cn(Cc2ccc(Cl)cc2)c2ccccc12",
    "Assay System": "SEM cells",
    "Readout Type": "cell viability",
    "Uom": "%",
    "Assay Result": 91.7
  }
]

====

Test system: SEM cells
Assay: cell viability relative to DMSO control; higher = less cytotoxic
Conditions: HPLM + 10% dialyzed FBS; 48 h; 0.19 µM

[
  {
    "Compound": "C[C@]12CCC(=O)C(O)=C1CC[C@@H]1[C@@H]2CC[C@]2(C)C(=O)CC[C@@H]12",
    "Uom": "%",
    "cell viability": 117
  },
  {
    "Compound": "COc1ccc(CC2SC(=O)NC2=O)cc1C(=O)NCc1ccc(C(F)(F)F)cc1 (stereo not drawn)",
    "Uom": "%",
    "cell viability": 92.5
  },
  {
    "Compound": "COC(=O)Nc1nc2cc(Sc3ccccc3)ccc2[nH]1",
    "Uom": "%",
    "cell viability": 130
  },
  {
    "Compound": "CC(=O)O[C@@]12CO[C@@H]1C[C@H](O)[C@]3(C)[C@@H]2[C@H](OC(=O)C4=CC=CC=C4)[C@]5(O)C[C@H](O)/C(=C(/[C@@H](O)C3=O)C5(C)C)C",
    "Uom": "%",
    "cell viability": 111
  },
  {
    "Compound": "COC1=CC=CC(=C1/C2=N/CC3=C(N=C(NC4=CC(=C(C=C4)C(O)=O)OC)N=C3)C5=CC=C(Cl)C=C25)F",
    "Uom": "%",
    "cell viability": 26
  },
  {
    "Compound": "CCC1=C2CN3C(=O)\\C4=C(/C=C3/C2=NC5=CC=C(O)C=C15)[C@@](O)(CC)C(=O)OC4",
    "Uom": "%",
    "cell viability": 17
  },
  {
    "Compound": "N[S+](=O)([O-])c1cc2c(cc1Cl)NCN[S+]2(=O)[O-]",
    "Uom": "%",
    "cell viability": 111
  },
  {
    "Compound": "C=CC[N+]1([C@H]2C[C@H]3[C@@H]4CC[C@H]5C[C@H](O)[C@@H](N6CCOCC6)C[C@]5(C)[C@H]4CC[C@]3(C)[C@H]2OC(C)=O)CCCC1",
    "Uom": "%",
    "cell viability": 131
  }
]

====

Tested on: SEM cells
Experiment: cell viability relative to DMSO control; higher = less cytotoxic
Details: RPMI 5 mM glucose + 10% dialyzed FBS; 48 h; 0.000781 µM

[
  {
    "Compound": "O=P1(NCCCl)OCCCN1CCCl (centres undefined)",
    "Assay System": "SEM cells",
    "Uom": "%",
    "cell viability": 87.6
  },
  {
    "Compound": "O=C(O)CCCc1ccc(N(CCCl)CCCl)cc1",
    "Assay System": "SEM cells",
    "Uom": "%",
    "cell viability": 97.4
  },
  {
    "Compound": "CC(C)N(CCCNC(=O)Nc1ccc(C(C)(C)C)cc1)C[C@H]1O[C@@H](n2cc(Br)c3c(N)ncnc32)[C@H](O)[C@@H]1O",
    "Assay System": "SEM cells",
    "Uom": "%",
    "cell viability": 67.2
  },
  {
    "Compound": "Cc1ccnc(N[S+](=O)([O-])c2ccc(NC(=O)Nc3ccc([S+](=O)([O-])Nc4nccc(C)n4)cc3)cc2)n1",
    "Assay System": "SEM cells",
    "Uom": "%",
    "cell viability": 77.8
  },
  {
    "Compound": "Clc1ccc2c(N3CCN(CCCN4CCN(c5ccnc6cc(Cl)ccc56)CC4)CC3)ccnc2c1",
    "Assay System": "SEM cells",
    "Uom": "%",
    "cell viability": 118
  },
  {
    "Compound": "Oc1ccc(C2CNCCc3c2cc(O)c(O)c3Cl)cc1 (centres undefined)",
    "Assay System": "SEM cells",
    "Uom": "%",
    "cell viability": 81.9
  },
  {
    "Compound": "COc1cc([C@@H]2c3cc4c(cc3[C@@H](O)C3COC(=O)C32)OCO4)cc(OC)c1O (some centres undefined)",
    "Assay System": "SEM cells",
    "Uom": "%",
    "cell viability": 78.6
  },
  {
    "Compound": "CC/C(=C(\\c1ccccc1)c1ccc(OCCN(C)C)cc1)c1ccccc1",
    "Assay System": "SEM cells",
    "Uom": "%",
    "cell viability": 87.4
  },
  {
    "Compound": "Clc1ccc(C(Cn2ccnc2)OCc2ccc(Sc3ccccc3)cc2)c(Cl)c1 (centres undefined)",
    "Assay System": "SEM cells",
    "Uom": "%",
    "cell viability": 101
  }
]
